Known MIC of a selection of molecules
# System: Pseudomonas aeruginosa
# assay.info: Antimicrobial activity against Pseudomonas aeruginosa ATCC 27853 by two-fold dilution method
# Type: functional

[
  {
    "molecule": "COC(=O)[C@H](O)[C@@H]1[C@@]2(C)[C@H]3CC[C@]4(C)C(=CC(=O)O[C@H]4c4ccoc4)[C@]3(O)[C@H]3[C@@H](O)C(=O)[C@@]1(C)C[C@]32OC(C)=O (relative stereo)",
    "bound.type": ">",
    "MIC [µg/mL]": 50
  },
  {
    "molecule": "COC(=O)C[C@H]1C(C)(C)[C@H](O)[C@@H]2C=C3[C@H]([C@H](OC(C)=O)C[C@]4(C)[C@H]3CC(=O)O[C@H]4c3ccoc3)[C@@]1(C)C2=O",
    "bound.type": ">",
    "MIC [µg/mL]": 50
  },
  {
    "molecule": "CC(=O)O[C@H]1C[C@@H](O)C(C)(C)[C@@H]2C[C@@H](O)[C@]3(C)[C@H](CC[C@@]4(C)[C@@H](c5ccoc5)OC(=O)[C@H]5O[C@@]534)[C@@]12C",
    "bound.type": ">",
    "MIC [µg/mL]": 50
  },
  {
    "molecule": "C=C1[C@H]2CC[C@]3(C)[C@H](c4ccoc4)OC(=O)C[C@@]13O[C@H]1CC(=O)OC(C)(C)[C@@H](CC(=O)OC)[C@@]12C [METHYL IVORENSATE]",
    "bound.type": ">",
    "MIC [µg/mL]": 50
  },
  {
    "molecule": "COC(=O)C[C@H]1C(C)(C)[C@H](OC(C)=O)[C@]2(O)C=C3[C@H]([C@H](OC(C)=O)C[C@]4(C)[C@H]3CC(=O)O[C@H]4c3ccoc3)[C@@]1(C)C2=O",
    "bound.type": "=",
    "MIC [µg/mL]": 25
  },
  {
    "molecule": "COC(=O)C[C@H]1C(C)(C)[C@H](OC(C)=O)[C@@H]2C=C3[C@@H]4CC(=O)O[C@@H](c5ccoc5)[C@]4(C)CC[C@@H]3[C@@]1(C)C2=O",
    "bound.type": "=",
    "MIC [µg/mL]": 12.5
  },
  {
    "molecule": "CC1(C)C(=O)[C@@H]2C[C@@]34O[C@]2(O)[C@]2(COC(=O)C[C@@H]12)[C@H]3CC[C@]1(C)[C@H]4CC(=O)O[C@H]1c1ccoc1 [SENEGANOLIDE]",
    "bound.type": ">",
    "MIC [µg/mL]": 50
  },
  {
    "molecule": "COC(=O)C[C@H]1C(C)(C)[C@H](OC(C)=O)[C@@H]2C=C3[C@H]([C@H](OC(C)=O)C[C@]4(C)[C@H]3CC(=O)O[C@H]4c3ccoc3)[C@@]1(C)C2=O",
    "bound.type": "=",
    "MIC [µg/mL]": 12.5
  },
  {
    "molecule": "COC(=O)C[C@H]1[C@@]2(C)C[C@]3(O)O[C@@]4(CC(=O)[C@H]2O)[C@H]2CC(=O)O[C@@H](c5ccoc5)[C@]2(C)CC[C@@H]4[C@]13C",
    "bound.type": ">",
    "MIC [µg/mL]": 50
  },
  {
    "molecule": "COC(=O)[C@H](O)[C@H]1C(C)(C)C(=O)[C@@H]2C[C@]3(O)[C@@H]4CC(=O)O[C@@H](c5ccoc5)[C@]4(C)CC[C@@H]3[C@@]1(C)C2=O",
    "bound.type": ">",
    "MIC [µg/mL]": 50
  },
  {
    "molecule": "CN[C@H](CC(C)C)C(=O)N[C@H]1C(=O)N[C@@H](CC(N)=O)C(=O)N[C@H]2C(=O)N[C@H]3C(=O)N[C@H](C(=O)N[C@H](C(=O)O)c4cc(O)cc(O)c4-c4cc3ccc4O)[C@H](O)c3ccc(c(Cl)c3)Oc3cc2cc(c3O[C@@H]2O[C@H](CO)[C@@H](O)[C@H](O)[C@H]2O[C@H]2C[C@](C)(N)[C@H](O)[C@H](C)O2)Oc2ccc(cc2Cl)[C@H]1O.Cl [VANCOMYCIN HYDROCHLORIDE]",
    "bound.type": "=",
    "MIC [µg/mL]": 25
  },
  {
    "molecule": "CC(=O)O[C@@H]1C[C@H](O)[C@]2(C)[C@H]3CC[C@@]4(C)[C@@H](c5ccoc5)OC(=O)[C@H]5O[C@]54[C@]3(C)[C@H](OC(C)=O)C[C@H]2C1(C)C",
    "bound.type": "=",
    "MIC [µg/mL]": 25
  },
  {
    "molecule": "CC(=O)O[C@H]1C[C@@H](OC(C)=O)C(C)(C)[C@@H]2CC(=O)[C@]3(C)[C@H](CC[C@@]4(C)[C@@H](c5ccoc5)OC(=O)[C@H]5O[C@]543)[C@@]12C",
    "bound.type": "=",
    "MIC [µg/mL]": 25
  },
  {
    "molecule": "COC(=O)[C@H](O)[C@H]1C(C)(C)[C@H](OC(C)=O)[C@@H]2CC3=C4CC(=O)O[C@@H](c5ccoc5)[C@]4(C)CC[C@@H]3[C@@]1(C)C2=O [SWIETENOLIDE-3-ACETATE]",
    "bound.type": "=",
    "MIC [µg/mL]": 25
  },
  {
    "molecule": "C=C1[C@@H]2CC[C@@]3(C)[C@H](c4ccoc4)OC(=O)C[C@]13O[C@H]1CC(=O)OC(C)(C)[C@H]([C@@H](O)C(=O)OC)[C@]12C (relative stereo)",
    "bound.type": "=",
    "MIC [µg/mL]": 25
  },
  {
    "molecule": "CC(=O)O[C@H]1C[C@@H](O)C(C)(C)[C@@H]2C[C@@H](OC(C)=O)[C@]3(C)[C@H](CC[C@@]4(C)[C@@H](c5ccoc5)OC(=O)[C@H]5O[C@@]534)[C@@]12C",
    "bound.type": "=",
    "MIC [µg/mL]": 12.5
  },
  {
    "molecule": "COC(=O)[C@@H](OC(C)=O)[C@H]1C(C)(C)C(=O)[C@@H]2C=C3[C@@H]4CC(=O)O[C@@H](c5ccoc5)[C@]4(C)CC[C@@H]3[C@@]1(C)C2=O",
    "bound.type": "=",
    "MIC [µg/mL]": 25
  }
]
